# System: OVCAR-4 ovarian
# test method notes: NCI tumour cell line growth inhibition, 48 h
For each record, write down the corresponding TGI.

TGI recorded for this molecule, Clc1nc(Cl)c2c3c(sc2n1)CCCC3 , is > 100 µM

TGI recorded for this molecule, Cc1cc(C)c2c(c1)C1=NCCN1C2(O)c1ccc(Cl)cc1 (stereo unspecified) , is 29.7 µM

TGI recorded for this molecule, Cc1[nH]n(C(=N)N)c(=O)c1CCO , is > 100 µM

TGI recorded for this molecule, CCOP(=O)(Nc1ccccc1P(=O)(OCC)OCC)OCC , is > 100 µM

TGI recorded for this molecule, NC1(C(=O)O)CCc2ccc(N(CCCl)CCCl)cc2C1 (stereo unspecified) , is > 100 µM

TGI recorded for this molecule, COC1=CC(=O)c2c(cc(COP(=O)(OCC3OC(n4cc(F)c(=O)[nH]c4=O)CC3O)N(C)CCCCCl)n2C)C1=O (stereo unspecified) , is > 34.8 µM
